B1: Pituitary-specific positive transcription factor 1, residues 130 to 198; numbered along this chain, P28069 (parent)
chain: RELEKFANEFKVRRIKLGYTQTNVGEALAAVHGSEFSQTTICRFENLQLSFKNACKLKAILSKWLEEAE

Variants of: B1
Assay: abundance fitness (aPCA) (normalised: wild type 0, dead -1); higher = more abundant; growth selection in yeast, the domain comes from the species named
Conditions: Homo sapiens
abundance fitness values by entry

Past entries and their recorded results:
{"columns": ["entry-sequence", "abundance fitness"],
 "data": [
  ["RELEKFANEFKVRRIKLGYTVTNVGEALAAVHGSEFSQTTICRFENLQLSFKNACKLKAILSKWLEEAE", -0.278],
  ["RELEKFANEFKVRRIKLGYTQTNVGEALAAVHGSEFSQTAICRFENLQLSFKNACKLKAILSKWLEEAE", -0.235]
]}

I'd like to know its abundance fitness. The variant in question is RELEKFANEFKVRRIKLGYTQTNVGEALAAVHGSEFSQTTICRFENLQLSFKNACKLKAILRKWLEEAE -0.377

Again, but for RELEKFANEFQVRRIKLGYTQTNVGEALAAVHGSEFSQTTICRFENLQLSFKNACKLKAILSKWLEEAE -0.507

Again, but for RELEKFANEFKVRRIKLGYTQTNVGEALAAVHGSEFSQTTICRFENLQLSFKNACKLKAILSKWLWEAE -0.562

Origin of measurements: the Human Domainome abundance scans (Beltran et al. 2025)
